Biological target: mAb 2C7
Test: Inhibition ELISA: inhibition of mAb 2C7 binding to immobilized gonococcal LOS
Conditions: mAb 2C7 0.04 μg/ml; LOS-coated wells; read-out: concentration giving 50% inhibition of mAb 2C7 binding to immobilized 15253 LOS
Source text: FIGS. 1A-1B show the structure and characterization of one of the peptide mimics described herein (also referred to as TMCP2). […] The 2C7 mimitope is indicated in shown as the sequence “H2C-CO-GPIPVLDENGLFAPGPC” (SEQ ID NO: 1) Cyclization is maintained through a thioether bond. The reverse peptide mimic core is represented the schematic of the peptide mimic as “Ac-β-Ala-Glu[Glu-OH]2.” The reverse peptide mimic core links to each cyclic peptide through a lysine (K) residue. […]
Bridges are numbered along the chain shown (N, C = ends).
Readout label: IC50 (µM)
Answer with a number only, understood to be in µM.

(CH2-CO-GPIPVLDENGLFAPGPC)-K-OH ({CH2CO}-GPIPVLDENGLFAPGPCK-OH; thioether N-17; SMILES CC[C@H](C)[C@@H]1NC(=O)[C@@H]2CCCN2C(=O)CNC(=O)CSC[C@@H](C(=O)N[C@@H](CCCCN)C(=O)O)NC(=O)[C@@H]2CCCN2C(=O)CNC(=O)[C@@H]2CCCN2C(=O)[C@H](C)NC(=O)[C@H](Cc2ccccc2)NC(=O)[C@H](CC(C)C)NC(=O)CNC(=O)[C@H](CC(N)=O)NC(=O)[C@H](CCC(=O)O)NC(=O)[C@H](CC(=O)O)NC(=O)[C@H](CC(C)C)NC(=O)[C@H](C(C)C)NC(=O)[C@@H]2CCCN2C1=O) [CP2]
107

Attention now turns to another entry.
Inquiry: Param readout= IC50; system= mAb 2C7; entry= [(CH2-CO-GPIPVLDENGLFAPGPC)-K-OH]4 ({CH2CO}-GPIPVLDENGLFAPGPCK-OH; thioether N-17; also: tetrameric MAP) [TMCP2] ; returns value.
Reply text: 25
